# credit: the nanobody polyreactivity screen of Harvey et al. (2022)

- procedure details: yeast display, Sf9 membrane polyspecificity reagent, FACS + sequencing; frameworks hold sequencing errors
assay metric: polyreactivity (PSR sort gate)

QVQLVESGGGLVQAGGSLRLICAASGYIFRPNAMGWYRQAPGKERELVASISSGGSTYYADSVKGRFTISRDNAKNTVYLQMNSLKPEDTAVYYCNARHYPWFAAYGSYAYEYWGQGTQVTVSS = low polyreactivity
QVQLVDSGGGLVQAGGSLRLTCDASGFIILYYAMRWYRQEPGKERELVADISRGADTKYADSVKGRFTISRDNAKNTVYLQMNSLKPEDTAVYYCATDITTFCFPYPGVELGYWGQGTQVTVSS = low polyreactivity
QVQLVESGGGLVQAGGSLRLSCAASGRIFAYYAMGWYRQAPGKERELVAAINWSGDGTIYADSVKWRFTISRDNAKNTVYLQMNSLKPQDTAVYYCNADWTSYGFGTRLDYWGQGNQVTVSS = low polyreactivity

###

- procedure details: yeast display, Sf9 membrane polyspecificity reagent, FACS + sequencing; frameworks hold sequencing errors
assay metric: polyreactivity (PSR sort gate)

QVQLVESGGGLVQAGGSLRLSCAASGLIFYRYTMGWYRQAPGKERELVAAITSTGTSTYYADSVKGRFTISRDNAKNTVYLQMNSLKPEDTAVYYCAARYIARGKWDYDYWGQGTQVTVSS = high polyreactivity
QVQLVESGGGLVQAGGSLRLSCAASGFTFRSNAMGWYRQAPGKERELVAAISYSGDSTYYADSVKGRFTISRDTAKNTVYLQMNSLKPEDTAVYYCAADGYDQWGRVGVYLIWTSYDYWGQGTQVTVSS = high polyreactivity

###

- procedure details: yeast display, Sf9 membrane polyspecificity reagent, FACS + sequencing; frameworks hold sequencing errors
assay metric: polyreactivity (PSR sort gate)

QVQLLESGGGLVQAGGSLRLSCAASGFTITRYAMGWYRQAPGKERELVAAITYRGGSTYYADSVKGRFTISRDNAKITVYLQMNSLKPEDTAVYYCAADALYYFSWYYYWGQGTQVTVSS = high polyreactivity
QVQLVESGGGLVQAGGSLRLSCAASGLTFYTYAMGWYRQAPGKERELVAAISGRGSRTFYADSVKGRFTISRDNAKNTVYLQMNSLKPEDTAVYYCAARVWSSFTGAYDYWGQGTQVTVSS = high polyreactivity
QVQLVESGGGLVQAGGSLRLSCAASGRIFRSNAMGWYRQAPGKERELVAAINNRDTSTYADSVKGRFTISRDNAKNTVYLQMNSLKPEDTAVYYCAARYQYYSTYGVTLDYWGQGTQVTVSS = low polyreactivity
QVQLVESGRGLVQAGCSLRLSCAASGRIFPWNAMGWYRQAPGKETEFVAAITSGGGTTYYADSVKGRFTISRDTAKITVYLQMNSLKQEDTAVYYCAAPVYTVRGWRGLYGYWGQGSQVTVSS = high polyreactivity
QVQLVESGGGLVQAGGSLRFSCAASGYTVGDYAMGSYRQAPGKERELVAVITRNGGRTYYADSVKGRFTISRDNAKNTVYLQMNSLKPEDTAVYYCNRDTSIRHYNYWGQGTQVTVSS = high polyreactivity

Enquiry: Entry under review: QVQLVESCGGLVQAGGSLRLSCAPSGRTIVYKAMGWYRQAPGKERELVAAISWSGGSPYYADSVKGRFTISRDNAKNTVNLQMNSLKPDDSAVYYCATSSYYYTIWMYYWGQGTQVTVSS . Reported polyreactivity (PSR sort gate)?
Return: high polyreactivity

Enquiry: Entry under review: QVQRVESGGGLVQAGGSLRLSCAASGRIFVRNVMGWYRQAPGKEREFVAAITTRGGSTYYADSVKGRFTISRDNAKNTVYLQMNSLKPEDTAVYYCAARYTLRLYWGQGTQVTVSS . Reported polyreactivity (PSR sort gate)?
Return: high polyreactivity

Enquiry: Entry under review: QVQLVESGGGLVQAGGSLRLSCAASGNTFAPNAMGWYRQAPGKERELVAVISWSSGRTYYADSVKGRFTISRDNAKNTVYLQMNSLKPEDTAVYYCAARFGSGFNYWGQGTQVTVSS . Reported polyreactivity (PSR sort gate)?
Return: high polyreactivity
